Tested on: U251 CNS
Test: NCI tumour cell line growth inhibition, 48 h
Overview of recorded TGI for various molecules
Your answer is read as µM, so omit the unit and give the number.

# count of solved cases: 4
{"columns": ["MOLECULE", "TGI [µM]"],
 "data": [
  ["C=C(CN1CCc2ccccc2C1)c1ccc(CCCC(=O)Nc2ccccc2N)cc1", 44.5],
  ["CC(C)(C)c1cc(C(C)(C)C)c(SC2OC(CO)C(O)C(O)C2O)c(O)c1O (stereo not drawn)", 20.3],
  ["COc1cc(C=NCC(=O)CSC(c2ccccc2)c2ccccc2)ccc1O", 26.9],
  ["OC(Cc1cccc2ccccc12)CN1CCC(c2ccccc2)CC1 (stereo not drawn)", 26.2]
]}

Ask | I would be grateful if you could share the reported TGI for COc1ccc2c(CN3CCCC[C@H]3O)cc3cc4c(cc3c2c1)OCO4 .
Reply | 10.8

Ask | I would be grateful if you could share the reported TGI for O=C(NNC(=O)c1ccc(Cl)cc1NC(=O)C12CC3CC(CC(C3)C1)C2)c1ccc(Cl)cc1 .
Reply | 45.4

###

System: OVCAR-5 ovarian
Assay: NCI tumour cell line growth inhibition, 48 h; in the data active = GI50 below about 0.43 µM; inactive = the rest
Reply using exactly one outcome from active, inactive

Worked cases, answers included:
{"columns": ["COMPOUND", "ANSWER LABEL"],
 "data": [
  ["COc1ccc(CN2c3ccccc3Sc3ccccc32)cc1O", "inactive"],
  ["CC(C)(O)c1cc(Nc2cc(Oc3cn(C4CC4)nc3C3CCOCC3)ccn2)ccn1", "inactive"],
  ["CSCc1ncc(-c2ccc(C(F)(F)F)cc2)c(NC2CCCCCC2)n1", "inactive"]
]}

Ask | // param item: CCN(CC)c1ccc(/C=N/N=C(N)N)cc1 ; yields the recorded call
Reply | inactive

Ask | // param item: COC(=O)c1c(C(=O)O)c(-c2ccccc2)c(-c2ccccc2)c(-c2ccccc2)c1-c1ccccc1 ; yields the recorded call
Reply | inactive

Ask | // param item: C/C(=N\NC(=S)N1CCCC1)c1ccccn1 ; yields the recorded call
Reply | active

Ask | // param item: CN(Cc1cnc2nc(N)nc(N)c2n1)c1c(Cl)cc(C(=O)NC(CCC(=O)O)C(=O)O)cc1Cl (configuration not stated) ; yields the recorded call
Reply | inactive

###

Test system: A549 NSCLC
Experiment: NCI tumour cell line growth inhibition, 48 h
EXPERIMENTAL READOUT: TGI

# count of solved cases: 10
{"columns": ["COMPOUND", "STUDY SYSTEM", "TGI"],
 "data": [
  ["COc1ccc2c(CN3CCCC[C@H]3O)cc3cc4c(cc3c2c1)OCO4", "A549 NSCLC", "2.82 µM"],
  ["C/C(N=NS(=O)(=O)c1c(C)cc(C)cc1C)=C1\\C=CC=CN1O", "A549 NSCLC", "> 100 µM"],
  ["COc1ccc(CN2c3ccccc3Sc3ccccc32)cc1O", "A549 NSCLC", "16.7 µM"],
  ["COc1cc(C=NCC(=O)CSC(c2ccccc2)c2ccccc2)ccc1O", "A549 NSCLC", "26 µM"],
  ["Cc1cc(O)c2c(c1)OC1(C)CCC3C(C)(C)CCCC34COC2C14 (stereo unspecified)", "A549 NSCLC", "28.6 µM"],
  ["CCOC(=O)C1=C(N2CCCC2)C(=O)C(C(=O)OCC)C1 (stereo unspecified)", "A549 NSCLC", "> 100 µM"],
  ["CC12CC(c3ccccc3O1)C(C(=O)Nc1nccs1)C(=O)N2 (stereo unspecified)", "A549 NSCLC", "> 100 µM"],
  ["COc1ccc(-c2c(/C=N/OCC(=O)O)c3sc4ccccc4n3c2/C=N/OCC(=O)O)cc1", "A549 NSCLC", "> 50 µM"],
  ["CCOP(=O)(OCC)C(c1ccccc1)N(C(=O)NC(F)(F)F)c1ccc(C)cc1 (stereo unspecified)", "A549 NSCLC", "> 100 µM"],
  ["CCOC(=O)c1cnc2n(c1=O)[C@H]1CCCC[C@@H]1N2", "A549 NSCLC", "> 100 µM"]
]}

Ask | I would be grateful if you could share the reported TGI for O=C1C(=O)N(c2cc(Cl)ccc2Cl)C(=O)C(=O)C1c1nc2ccccc2s1 .
Reply | > 100 µM

Ref: PubChem BioAssay (NCI)
